target: Thioredoxin reductase 1, cytoplasmic (Rattus norvegicus) (UniProt O89049); experiment: qHTS Assay for Inhibitors of Mammalian Selenoprotein Thioredoxin Reductase 1 (TrxR1) (AID 488773); settings: purified TrxR1 enzyme activity; inhibition; series mostly up to 57.1 µM;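 further: drop in NADPH fluorescence over an 8 min run after selenite addition; nearly all actives have a fitted effect of over 40% in size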
Sequence (O89049 whole entry, looked up): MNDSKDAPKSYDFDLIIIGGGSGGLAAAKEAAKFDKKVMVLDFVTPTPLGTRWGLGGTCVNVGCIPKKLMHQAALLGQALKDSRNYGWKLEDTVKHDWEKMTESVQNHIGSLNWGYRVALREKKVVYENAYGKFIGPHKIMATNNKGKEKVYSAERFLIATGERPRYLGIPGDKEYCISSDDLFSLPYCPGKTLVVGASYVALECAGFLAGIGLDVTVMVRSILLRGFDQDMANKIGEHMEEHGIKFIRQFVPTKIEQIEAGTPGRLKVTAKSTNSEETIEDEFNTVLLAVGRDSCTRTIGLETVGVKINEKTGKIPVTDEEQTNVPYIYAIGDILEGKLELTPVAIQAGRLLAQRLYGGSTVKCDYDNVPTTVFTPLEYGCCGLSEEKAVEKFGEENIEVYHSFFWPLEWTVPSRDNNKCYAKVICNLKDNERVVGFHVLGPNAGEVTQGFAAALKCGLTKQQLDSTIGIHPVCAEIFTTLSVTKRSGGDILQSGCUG
Records with an inconclusive call do not appear. Calls of active or inactive are those of the source. The call rests on the fitted dose curve; in most records, active means well fitted inhibition curve with a large enough effect; inconclusive means small, poorly fitted or top-dose-only effect; inactive means no such curve, though single readings can be large or run the other way.
reported_endpoint: outcome

Field: example entries. Status: answers known.
compound="NC(Cc1cccc(-c2ccccc2CP(=O)(O)O)c1)C(=O)O (stereo not given)" reported_endpoint=outcome result=inactive
compound=COc1cc2c(CCNC(C)=O)c[nH]c2cc1O reported_endpoint=outcome result=inactive
compound=C=C1C[C@@]23CC[C@H]4[C@@](C)(CCC[C@@]4(C)C(=O)O)[C@@H]2CC[C@]1(O)C3 reported_endpoint=outcome result=inactive
compound="N=C(N)c1ccc(OCCCCCOc2ccc(C(=N)N)cc2)cc1 (tested in a mixture with another compound)" reported_endpoint=outcome result=inactive

Okay, next one:
Qu. For the compound COc1ccccc1N1CCN(CCN(C(=O)c2ccc(F)cc2)c2ccccn2)CC1 , report outcome.
Ans. inactive

====

target: Atrial natriuretic peptide receptor 1 (Homo sapiens) (UniProt P16066); assay: Natriuretic polypeptide receptor (hNpr1) antagonism - Pilot screen (AID 1347049); settings: hNpr1 cells, antagonist mode cGMP read-out; series mostly up to 57.5 µM;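 further: HEK293 cells with hNpr1 and GloSensor cGMP luciferase stimulated by 0.1 nM hNppA; agonist-evoked cGMP luminescence read 20 min after hNppA addition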
Sequence (P16066 whole entry, looked up): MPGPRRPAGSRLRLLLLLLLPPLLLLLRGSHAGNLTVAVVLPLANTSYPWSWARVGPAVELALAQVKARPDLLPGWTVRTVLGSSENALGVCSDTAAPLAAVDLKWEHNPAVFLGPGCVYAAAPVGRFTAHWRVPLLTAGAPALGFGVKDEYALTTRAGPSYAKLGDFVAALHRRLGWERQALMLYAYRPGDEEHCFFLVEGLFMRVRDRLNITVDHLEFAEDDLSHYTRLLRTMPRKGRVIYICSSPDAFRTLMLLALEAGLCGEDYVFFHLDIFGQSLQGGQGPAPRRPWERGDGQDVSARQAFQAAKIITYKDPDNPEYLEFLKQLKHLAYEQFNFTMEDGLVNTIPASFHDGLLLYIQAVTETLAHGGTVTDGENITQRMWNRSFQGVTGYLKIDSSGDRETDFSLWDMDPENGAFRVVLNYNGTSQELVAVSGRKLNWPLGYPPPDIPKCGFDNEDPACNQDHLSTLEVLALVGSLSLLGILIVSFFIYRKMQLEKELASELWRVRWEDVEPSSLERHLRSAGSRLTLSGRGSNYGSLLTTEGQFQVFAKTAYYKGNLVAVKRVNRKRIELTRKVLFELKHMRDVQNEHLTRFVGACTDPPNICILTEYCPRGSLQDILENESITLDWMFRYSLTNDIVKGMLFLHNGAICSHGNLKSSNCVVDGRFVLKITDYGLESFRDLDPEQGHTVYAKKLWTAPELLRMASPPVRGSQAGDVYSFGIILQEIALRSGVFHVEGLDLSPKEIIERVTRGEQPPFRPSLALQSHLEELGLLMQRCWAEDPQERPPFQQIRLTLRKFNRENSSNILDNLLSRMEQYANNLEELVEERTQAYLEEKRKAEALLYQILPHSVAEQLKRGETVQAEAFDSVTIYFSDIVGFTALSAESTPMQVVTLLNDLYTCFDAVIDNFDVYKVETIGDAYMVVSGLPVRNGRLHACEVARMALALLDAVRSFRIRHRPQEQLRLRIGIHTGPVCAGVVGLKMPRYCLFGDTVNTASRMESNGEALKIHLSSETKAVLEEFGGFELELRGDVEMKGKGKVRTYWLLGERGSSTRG
Inconclusive results are not listed. Activity calls are given as the source filed them. Calls come from the whole dose curve.
reported_endpoint: outcome

Field: example entries. Status: answers known.
compound=C[N+](C)(C)CC=O result=inactive
compound=COc1cc(CNC(=O)CCCCCCC(C)C)ccc1O result=inactive
compound="C=C(C)C1CC=C(C(=O)O)CC1 (configuration not stated)" result=inactive
compound="NCC(O)C1CCCCCCC1 (configuration not stated)" result=inactive

Field: outcome. Fill in for each record below.
1. Cc1cccc(C(=O)NCN2CCN(c3ccccc3C#N)CC2)c1
2. CC(=O)SC1CC2=CC(=O)CC[C@]2(C)C2CC[C@@]3(C)C(CC[C@@]34CCC(=O)O4)C12 (some centres not stated)

Ans.
inactive
inactive

Qu. For the compound COc1ccc2c(c1)c(CC(=O)O)c(C)n2C(=O)c1ccccc1 , report outcome.
Ans. inactive

====

experiment: qHTS assay for measurement of the activity of small molecule inhibitors on Zika virus induced Caspase-3 activity in human iPSC derived neural progenitor cells (hNPCs) (AID 1224857); details: hNPCs ZIKV-induced caspase-3/7, Caspase-Glo luminescence, 6 h; series mostly up to 45.7 µM; further: nearly all actives have a fitted effect of over 65% in size
Inconclusive results are not listed. Calls of active or inactive are those of the source. The call rests on the fitted dose curve; in most records, active means well fitted inhibition curve with a large enough effect; inconclusive means small, poorly fitted or top-dose-only effect; inactive means no such curve, though single readings can be large or run the other way.
reported_endpoint: outcome

molecule=Oc1ccc(Cn2cc[nH]c2=S)cc1 reported_endpoint=outcome result=inactive
molecule=C=CCN1CCc2c(cc(O)c(O)c2Br)[C@@H](c2ccccc2)C1 reported_endpoint=outcome result=inactive
molecule=CSC(N)=NCCC[C@H](N)C(=O)O reported_endpoint=outcome result=inactive
molecule=S=C(S)N1CCCC1 reported_endpoint=outcome result=inactive
molecule=CN[C@H](CC(=O)O)C(=O)O reported_endpoint=outcome result=inactive

Qu. For the molecule C[C@H]1CC2C3CCC4=CC(=O)C=C[C@]4(C)[C@@]3(Cl)[C@@H](O)C[C@]2(C)[C@@]1(O)C(=O)CO (stereo partly specified) , report outcome.
Ans. inactive

====

biological target: N-terminal Xaa-Pro-Lys N-methyltransferase 1 (Homo sapiens); assay: qHTS Assay for Inhibitors of N-terminal methyltransferase 1 (NTMT1): LOPAC validation of the NTMT1 SAHH-coupled ThioGlo3 Assay (AID 1347143); conditions: recombinant NTMT1, SAHH-coupled ThioGlo3 fluorescence; series mostly up to 114 µM;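 further: SAH from peptide methylation measured as thiol fluorescence via SAHH coupling and ThioGlo3; nearly all actives have a fitted effect of over 70% in size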
Results filed as inconclusive are left out. Active and inactive are the calls of the source. The call rests on the fitted dose curve; in most records, active means well fitted inhibition curve with a large enough effect; inconclusive means small, poorly fitted or top-dose-only effect; inactive means no such curve, though single readings can be large or run the other way.
Assign a class; possible classes are active, inactive

structure_as_smiles=O=C(O)CCC/C=C\C[C@@H]1[C@@H](/C=C/[C@H](O)C2Cc3ccccc3C2)[C@@H](F)C[C@@H]1O assay_target="N-terminal Xaa-Pro-Lys N-methyltransferase 1 (Homo sapiens)" assigned_class=inactive
structure_as_smiles=Nc1nc2[nH]c(=O)cnc2c(=O)[nH]1 assay_target="N-terminal Xaa-Pro-Lys N-methyltransferase 1 (Homo sapiens)" assigned_class=active
structure_as_smiles=N#C/C(=C\c1ccc(O)c(O)c1)C(=O)NCCCNC(=O)/C(C#N)=C/c1ccc(O)c(O)c1 assay_target="N-terminal Xaa-Pro-Lys N-methyltransferase 1 (Homo sapiens)" assigned_class=active

Qu. Please state the recorded outcome for this compound: Nc1ncnc2c1c(-c1ccc(Oc3ccccc3)cc1)cn2C1CCCC1
Ans. active

Entry source: PubChem BioAssay (NCATS)
